Reference source for all entries: paper PMC8838460

Below: a set of entries, each annotated with reported melting point.
PARAMETER MEASURED: melting point (°C)

[[record]]
compound = "CCCCCCCCCCCSc1nc2ccccc2[nH]1"
value_measured = 104

[[record]]
compound = "CCOCSc1nc2ccccc2n1COCC"
value_measured = 108

[[record]]
compound = "OCCCSc1nc2ccccc2[nH]1"
value_measured = 119

[[record]]
compound = "c1ccc2[nH]c(SCC3CO3)nc2c1 (centres unmarked)"
value_measured = 211

[[record]]
compound = "CC(O)CSc1nc2ccccc2[nH]1 (centres unmarked)"
value_measured = 250

[[record]]
compound = "CCOC(CSc1nc2ccccc2[nH]1)OCC"
value_measured = 80

[[record]]
compound = "CCCCSc1nc2ccccc2[nH]1"
value_measured = 145

